- Test system: Mus musculus
- testName: Anticonvulsant activity in po dosed CF albino mouse assessed as protection against electroshock-induced seizure
- Assay type: functional
Calls of active or inactive are those of the source. The calls are words filed in the database; no cut-off is given here.
outcomeMeasure: ED50

These solved cases illustrate the format of a correct answer.
compound="CCN(CC)CCN1N=C(c2ccccc2)C(C)C2=C1CC(C)(C)CC2=O.[O-][Cl+3]([O-])([O-])O (centres undefined)" measurementtarget="Mus musculus" outcomemeasure=ED50 recordedmeasurement="400 mg/kg"
compound=CC1(C)CC(=O)C2=C(C1)N(C(N)=O)N=C(c1ccccc1)C2 measurementtarget="Mus musculus" outcomemeasure=ED50 recordedmeasurement=inactive
compound=CCN(CC)CCN1N=C(c2ccccc2)CC2=C1CC(C)(C)CC2=O.[O-][Cl+3]([O-])([O-])O measurementtarget="Mus musculus" outcomemeasure=ED50 recordedmeasurement="225 mg/kg"
compound=CN(C)CCN1N=C(c2ccc(Br)cc2)CC2=C1CC(C)(C)CC2=O.[O-][Cl+3]([O-])([O-])O measurementtarget="Mus musculus" outcomemeasure=ED50 recordedmeasurement="100 mg/kg"
compound=CCN(CC)CCN1N=C(c2ccc(Br)cc2)CC2=C1CC(C)(C)CC2=O measurementtarget="Mus musculus" outcomemeasure=ED50 recordedmeasurement="100 mg/kg"

// returns reported ED50 for input CCN(CC)CCN1N=C(c2ccc(OC)cc2)CC2=C1CC(C)(C)CC2=O.[O-][Cl+3]([O-])([O-])O
300 mg/kg

// returns reported ED50 for input CCOC(=O)NNC1=C(CC(=O)c2ccccc2)C(=O)CC(C)(C)C1
inactive

// returns reported ED50 for input CC1=NNC2=C(C1)C(=O)CC(C)(C)C2
inactive

// returns reported ED50 for input CC1(C)CC(=O)C(CC(=O)c2ccccc2)=C(NNc2ccncc2)C1
inactive
